Reported IC50 values are given for each entry in this list.
target: human Gal-1 (hGal-1) (Homo sapiens, UniProt P09382); experiment: Competitive binding assay: biotinylated hGal-1 binding to microplate-adsorbed asialofetuin (ASF), spectrophotometric; details: hGal-1 binding to asialofetuin; Table 15; R and S epimers of selected Examples also listed; read-out: IC50 (Galectin-1 inhibition)
Sequence (P09382 whole entry): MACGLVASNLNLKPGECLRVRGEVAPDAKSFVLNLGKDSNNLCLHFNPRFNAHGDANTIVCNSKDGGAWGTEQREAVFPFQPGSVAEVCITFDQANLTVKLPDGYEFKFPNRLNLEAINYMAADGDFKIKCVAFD
quantity_measured: IC50 (µM)

[[record]]
compound = "CN(C(=O)[C@@H](S[C@@H]1O[C@H](CO)[C@H](O)[C@H](n2cc(-c3cc(F)c(F)c(F)c3)nn2)[C@H]1O)C1(O)CCOCC1)C1COC1 [Example 2.41.235S.]"
quantity_measured = "IC50"
experimental_value = 0.09

[[record]]
compound = "CO[C@@H]1[C@@H](n2cc(-c3cc(F)c(F)c(F)c3)nn2)[C@@H](O)[C@@H](CO)O[C@H]1S[C@H](C(=O)N(C)c1ccccn1)C1(O)CCC(F)(F)CC1 [Example 2.41.233S.I.]"
quantity_measured = "IC50"
experimental_value = 0.03

[[record]]
compound = "CO[C@@H]1[C@@H](n2cc(-c3cc(F)c(F)c(F)c3)nn2)[C@@H](O)[C@@H](CO)O[C@H]1SC(C(=O)N(C)C1CCC(C)(C)CC1)C1(O)CCC(F)(F)CC1 (stereo partly drawn) [Example 2.44.246.I.]"
quantity_measured = "IC50"
experimental_value = 1.2


* * *

Readings of pIC50 for the listed compounds
biological target: biotinylated human Gal-3 (hGal-3) (Homo sapiens, UniProt P17931); assay: Competitive binding assay: biotinylated hGal-3 binding to microplate-adsorbed asialofetuin (ASF), spectrophotometric; conditions: Gal-3 inhibition, Table 7; read-out: IC50
Sequence (P17931 whole entry): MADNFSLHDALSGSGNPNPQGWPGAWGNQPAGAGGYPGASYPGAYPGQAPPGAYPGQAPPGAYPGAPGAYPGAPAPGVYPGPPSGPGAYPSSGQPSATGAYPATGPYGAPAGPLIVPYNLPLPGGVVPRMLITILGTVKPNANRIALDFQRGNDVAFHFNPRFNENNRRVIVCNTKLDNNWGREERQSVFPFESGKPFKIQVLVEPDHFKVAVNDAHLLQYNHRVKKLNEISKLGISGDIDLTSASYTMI
pIC50: −log10 of the molar value.
quantity_measured: pIC50

[[record]]
compound = "CN(CC1CC1)C(=O)C(S[C@@H]1O[C@H](CO)[C@H](O)[C@H](n2cc(-c3cc(F)c(F)c(F)c3)nn2)[C@H]1O)C(O)c1ccn(C)n1 (stereo partly drawn) [Example 2.65.218.]"
experimental_value = 6.16

[[record]]
compound = "CCC(O)C(S[C@@H]1O[C@H](CO)[C@H](O)[C@H](n2cc(-c3cc(F)c(F)c(F)c3)nn2)[C@H]1O)C(=O)N(C)CC1CC1 (stereo partly drawn) [Example 2.60.218.]"
experimental_value = 6.92

[[record]]
compound = "Cn1ccc(C(O)C(S[C@@H]2O[C@H](CO)[C@H](O)[C@H](n3cc(-c4cc(F)c(F)c(F)c4)nn3)[C@H]2O)C(=O)N2CCC2)n1 (stereo partly drawn) [Example 2.65.206.]"
experimental_value = 5.98

[[record]]
compound = "CCN(C)C(=O)C(S[C@@H]1O[C@H](CO)[C@H](O)[C@H](n2cc(-c3cc(F)c(F)c(F)c3)nn2)[C@H]1O)C(O)Cc1ccccc1 (stereo partly drawn) [Example 2.64.203.]"
experimental_value = 6.66

[[record]]
compound = "CCN(C)C(=O)C(S[C@@H]1O[C@H](CO)[C@H](O)[C@H](n2cc(-c3cc(F)c(F)c(F)c3)nn2)[C@H]1O)C(O)c1ccn(C)n1 (stereo partly drawn) [Example 2.65.203.]"
experimental_value = 6.19

[[record]]
compound = "O=C(C(S[C@@H]1O[C@H](CO)[C@H](O)[C@H](n2cc(-c3cc(F)c(F)c(F)c3)nn2)[C@H]1O)C(O)Cc1ccccc1)N1CCC1 (stereo partly drawn) [Example 2.64.206.]"
experimental_value = 6.15

